Assay: Clearance in cynomolgus monkey at 5 mg/kg, iv
Assay type: ADME, organism-based, Macaca fascicularis
Parameters: dose 5 mg/kg, route intravenous
Settings: in vivo
QUANTITY NAME: clearance

Looking up COc1ccc([C@]2(O)CC[C@H](N3CC[C@@H](NC(=O)CNC(=O)c4cccc(C(F)(F)F)c4)C3)CC2)cn1.CS(=O)(=O)O , I see its clearance listed as 13.7 mL/min/kg

----------
Assay: Half life in chimpanzee at 1 mg/kg, iv
Type: ADME, organism-based, Pan troglodytes
Parameters: dose 1 mg/kg, route intravenous
Details: in vivo
QUANTITY NAME: half-life
Answers without a unit are incomplete; give the number and then its unit.

half-life for COc1ccc([C@]2(O)CC[C@H](N3CC[C@@H](NC(=O)CNC(=O)c4cccc(C(F)(F)F)c4)C3)CC2)cn1.CS(=O)(=O)O is 3.8 h

----------
Test system: Mus musculus
Experiment: Dose normalized AUC in mouse at 10 mg/kg, po
Format: ADME, organism-based
Parameters: dose 10 mg/kg, route oral
Conditions: in vivo
QUANTITY NAME: AUC/dose (nM·h)
Respond with the bare value in nM·h.

Value of measured AUC/dose for the entry O=C(CNC(=O)c1cccc(C(F)(F)F)c1)N[C@@H]1CCN([C@H]2CC[C@@](O)(c3cnccn3)CC2)C1 : 1550

AUC/dose reported for this compound O=C(CNC(=O)c1cccc(C(F)(F)F)c1)N[C@@H]1CCN([C@H]2CC[C@@](O)(c3ccccn3)CC2)C1 : 2812

Input CCOc1ccc([C@]2(O)CC[C@H](N3CC[C@@H](NC(=O)CNC(=O)c4cccc(C(F)(F)F)c4)C3)CC2)cn1 . Output AUC/dose: 287

Moving on to another compound below.
Documented AUC/dose of O=C(CNC(=O)c1cccc(C(F)(F)F)c1)N[C@@H]1CCN([C@H]2CC[C@@](O)(c3ncccn3)CC2)C1 : 1442

----------
inhibition values by entry
Biological target: C-C chemokine receptor type 2 (Homo sapiens, UniProt P41597)
Sequence (P41597 whole entry, looked up): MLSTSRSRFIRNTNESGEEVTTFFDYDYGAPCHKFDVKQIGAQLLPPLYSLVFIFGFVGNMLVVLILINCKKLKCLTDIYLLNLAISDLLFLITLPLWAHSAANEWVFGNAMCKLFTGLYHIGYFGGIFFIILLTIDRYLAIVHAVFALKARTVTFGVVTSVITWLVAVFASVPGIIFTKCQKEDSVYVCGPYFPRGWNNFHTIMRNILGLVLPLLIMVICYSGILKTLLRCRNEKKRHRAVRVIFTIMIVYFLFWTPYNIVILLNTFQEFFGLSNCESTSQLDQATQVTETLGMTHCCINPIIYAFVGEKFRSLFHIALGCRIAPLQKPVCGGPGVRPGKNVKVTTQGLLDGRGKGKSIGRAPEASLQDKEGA
Assay: Displacement of [125I]MCP1 from CCR2 in human PBMC at 1 uM after 30 mins by gamma counter

Record excerpt, results attached:
What the record says about O=C(CNC(=O)c1cccc(C(F)(F)F)c1)N[C@@H]1CCN([C@H]2CC[C@](O)(c3ccccn3)CC2)C1 : inhibition is < 50%

# compound O=C(CNC(=O)c1cccc(C(F)(F)F)c1)N[C@@H]1CCN([C@H]2CC[C@](O)(c3cccnn3)CC2)C1 ; its inhibition = < 50%

Continue with the next compound.
Reported inhibition of O=C(CNC(=O)c1cccc(C(F)(F)F)c1)N[C@@H]1CCN([C@H]2CC[C@](O)(c3ccnnc3)CC2)C1 : < 50%
